Consider the following molecules; for each one, report its Plant response rating, Bedstraw.
# System: bedstraw
# Procedure summary: Test B pre/postemergence bedstraw
# Assay type: in vivo, Galium aparine
# Measurement parameters: Rate 250 g/ha, Postemergence; scale 0 to 10, 0 is no effect, 10 is complete control
// return just the number, without any unit appended

Any idea what Plant response rating, Bedstraw was measured for Cc1nsc(C)c1-n1c(=O)on(C(=O)N(c2ccc(Cl)cc2)C(C)C)c1=O [Compound 159] ?
0

Name the reported Plant response rating, Bedstraw value associated with the molecule CC(C)N(C(=O)n1oc(=O)n(C)c1=O)c1ccc(F)cc1 [Compound 138]
8

Name the recorded Plant response rating, Bedstraw for CC(C)N(C(=O)n1oc(=O)n([C@@H](C)c2ccccc2)c1=O)c1ccc(F)cc1 [Compound 167] .
8

Given the entry C=CCn1c(=O)on(C(=O)N(c2ccc(F)cc2)C2CC2)c1=O [Compound 154] , report its measured Plant response rating, Bedstraw.
0

Item under review: CC(C)N(C(=O)n1oc(=O)n([C@@H](C)c2ccccc2)c1=O)c1ccccc1 [Compound 168] . Reported Plant response rating, Bedstraw?
8

----------
# Test system: purple nutsedge
# Procedure summary: Test B pre/postemergence purple nutsedge
# Type: in vivo, Cyperus rotundus
# Measurement parameters: Rate 500 g/ha, Postemergence; scale 0 to 10, 0 no effect, 10 complete control
Reported endpoint: Nutsedge plant response rating

Given the entry "CC(C)N(C(=O)n1oc(=O)n(C2CC2)c1=O)c1ccc(F)cc1" , report its measured Nutsedge plant response rating.
5

Give the measured Nutsedge plant response rating of "CC(C)N(C(=O)n1oc(=O)n(Cc2ccccc2)c1=O)c1ccc(F)cc1" .
0

Fill blank: measured Nutsedge plant response rating of the compound "CC(C)N(C(=O)n1oc(=O)n(-c2cccnc2)c1=O)c1ccccc1" is ____.
0

What value of Nutsedge plant response rating has been reported for the following compound? "CC(C)N(C(=O)n1oc(=O)n(CC(C)(C)C)c1=O)c1ccc(F)cc1"
3

Find the recorded Nutsedge plant response rating belonging to "CCc1ccc(N(C(=O)n2oc(=O)n(-c3ccccc3C)c2=O)C(C)C)cc1" and report it.
0

Recorded Nutsedge plant response rating for "CC(C)N(C(=O)n1oc(=O)n(-c2cccnc2)c1=O)c1ccc(F)cc1" , please?
0

Return reported Nutsedge plant response rating; argument: "CC(C)N(C(=O)n1oc(=O)n(-c2ccsc2)c1=O)c1ccc(F)cc1"
0

Tell me the measured Nutsedge plant response rating of "CC(C)=CCCC(C)=CCn1c(=O)on(C(=O)N(c2ccc(F)cc2)C(C)C)c1=O" , please.
0

GET /values?readout=Nutsedge plant response rating&item= "CC(C)N(C(=O)n1oc(=O)n(Cc2cccs2)c1=O)c1ccc(F)cc1F"
0

----------
# Test system: purple nutsedge
# Procedure summary: Test B pre/postemergence purple nutsedge
# Assay type: in vivo, Cyperus rotundus
# Measurement parameters: Preemergence, Rate 500 g/ha; scale of 0 to 10 where 0 is no effect and 10 is complete control
# Procedure: […] At the same time, these crop and weed species were also treated with postemergence applications of test chemicals formulated in the same manner. […] Treated plants and controls were maintained in a greenhouse for twelve to sixteen days, after which all species were compared to controls and visually evaluated. […]
Please provide measured Plant response rating, Nutsedge for the entries that follow.
Hey, just send me the number, nothing else.

Return reported Plant response rating, Nutsedge; argument: COC(=O)C(C)n1c(=O)on(C(=O)N(c2ccc(F)cc2)C(C)C)c1=O (centres unmarked)
0

Suppose we examine the molecule "CCCCn1c(=O)on(C(=O)N(c2ccc(F)cc2F)C(C)C)c1=O" ; what Plant response rating, Nutsedge value has been reported?
4

Look up Plant response rating, Nutsedge: "CC(C)N(C(=O)n1oc(=O)n(C2CCCC2)c1=O)c1ccccc1"
0

May I ask what Plant response rating, Nutsedge has been recorded for "COC(=O)CCCn1c(=O)on(C(=O)N(c2ccc(F)cc2)C(C)C)c1=O" ?
0

Endpoint output: Plant response rating, Nutsedge of "CC(C)N(C(=O)n1oc(=O)n(CC(C)(C)C)c1=O)c1ccc(F)cc1" . Value?
0

Need Plant response rating, Nutsedge of "CC(C)N(C(=O)n1oc(=O)n(CC(Cl)Cl)c1=O)c1ccc(F)cc1F" , thanks.
6

Entry under review: "CC(C)N(C(=O)n1oc(=O)n(CC(=O)C(C)(C)C)c1=O)c1ccc(F)cc1" . Reported Plant response rating, Nutsedge?
0

Name the reported Plant response rating, Nutsedge value associated with the molecule COC(=O)C(C)n1c(=O)on(C(=O)N(c2ccc(Cl)cc2)C(C)C)c1=O (centres unmarked)
0

Entry "CC(C)N(C(=O)n1oc(=O)n(CC(=O)C(F)(F)F)c1=O)c1ccc(F)cc1F" has what Plant response rating, Nutsedge?
0

Using the record for "CC(C)N(C(=O)n1oc(=O)n(C2CC2)c1=O)c1ccc(F)cc1" , report its Plant response rating, Nutsedge.
10

Which Plant response rating, Nutsedge value is on record for COC(C)n1c(=O)on(C(=O)N(c2ccc(Cl)cc2)C(C)C)c1=O (centres unmarked) ?
0

What does the data say about its Plant response rating, Nutsedge? Entry: "CC(C)N(C(=O)n1oc(=O)n(CC(=O)C2CC2)c1=O)c1ccc(Cl)cc1"
0

So what's the measured Plant response rating, Nutsedge for this one? "C=CCn1c(=O)on(C(=O)N(c2ccc(F)cc2)C2CCCCCC2)c1=O"
0

Name the recorded Plant response rating, Nutsedge for "CC(C)N(C(=O)n1oc(=O)n(CC2=NOCCC2)c1=O)c1ccc(F)cc1F" .
0

----------
# Tested on: sugar beet
# Procedure summary: Test B pre/postemergence sugar beet
# Format: in vivo, Beta vulgaris
# Measurement parameters: Preemergence, Rate 62 g/ha; scale of 0 to 10 where 0 is no effect and 10 is complete control
Reported endpoint: Sugarbeets plant response rating
Note: the reply should be a number with no unit written.

Quick one: Sugarbeets plant response rating of "CC(C)N(C(=O)n1oc(=O)n([C@@H](C)c2ccccc2)c1=O)c1ccc(Cl)cc1" ?
3

Using the record for "CC(C)N(C(=O)n1oc(=O)n([C@@H](C)c2ccccc2)c1=O)c1ccc(F)cc1" , report its Sugarbeets plant response rating.
0

Please give the measured Sugarbeets plant response rating for this compound: "CCc1ccc(N(C(=O)n2oc(=O)n(-c3ccccc3C)c2=O)C(C)C)cc1"
0

Recorded Sugarbeets plant response rating of "CC(C)N(C(=O)n1oc(=O)n(CC(Cl)Cl)c1=O)c1ccc(F)cc1F" , please.
0

----------
I'd appreciate it if you could supply Redroot pigweed plant response rating values for the items below.
# Test system: pigweed
# Procedure summary: Test B pre/postemergence pigweed
# Type: in vivo, Amaranthus retroflexus
# Measurement parameters: Preemergence, Rate 62 g/ha; scale 0 to 10 (0 no effect, 10 complete control)

Redroot pigweed plant response rating lookup needed for "CCN(Cc1ccccc1)C(=O)n1oc(=O)n(-c2c(C)cccc2C)c1=O" , thanks.
0

Please give the measured Redroot pigweed plant response rating for this compound: "Cc1cccc(C(C)C)c1-n1c(=O)on(C(=O)N(c2ccc(Cl)cc2)C(C)C)c1=O"
0

Redroot pigweed plant response rating lookup needed for "Cc1nsc(C)c1-n1c(=O)on(C(=O)N(c2ccc(F)cc2)C(C)C)c1=O" , thanks.
0

Sample "CC(C)N(C(=O)n1oc(=O)n(C)c1=O)c1ccc(F)cc1" — what was its Redroot pigweed plant response rating?
9

----------
# Test system: pigweed
# Procedure summary: Test B pre/postemergence pigweed
# Type: in vivo, Amaranthus retroflexus
# Measurement parameters: Postemergence, Rate 125 g/ha; scale of 0 to 10 where 0 is no effect and 10 is complete control
Task for the reader: assign each of the following compounds its reported Plant response rating, Redroot pigweed.

Endpoint output: Plant response rating, Redroot pigweed of CCC(C)n1c(=O)on(C(=O)N(c2ccccc2)C(C)C)c1=O (centres unmarked) [Compound 612] . Value?
2

Consider the compound shown here: CC(C)N(C(=O)n1oc(=O)n(CC2=NOCCC2)c1=O)c1ccc(F)cc1F [Compound 602] What is its recorded Plant response rating, Redroot pigweed?
2

Request the reported Plant response rating, Redroot pigweed associated with COC(C)n1c(=O)on(C(=O)N(c2ccc(Cl)cc2)C(C)C)c1=O (centres unmarked) [Compound 592]
0

Plant response rating, Redroot pigweed for COCCn1c(=O)on(C(=O)N(c2ccccc2)C(C)C)c1=O [Compound 631] ?
0

Request the reported Plant response rating, Redroot pigweed associated with CCOP(=O)(OCC)C(C)n1c(=O)on(C(=O)N(c2ccc(F)cc2)C(C)C)c1=O (centres unmarked) [Compound 617]
0

----------
Consider the following compounds; for each one, report its Plant response rating, Velvetleaf.
# System: velvetleaf
# Procedure summary: Test B pre/postemergence velvetleaf
# Type: in vivo, Abutilon theophrasti
# Measurement parameters: Postemergence, Rate 62 g/ha; scale 0 to 10, 0 is no effect, 10 is complete control
Answer with a number only.

Look at this compound and give its reported Plant response rating, Velvetleaf. CCOC(CC)n1c(=O)on(C(=O)N(c2ccc(F)cc2F)C(C)C)c1=O (centres unmarked)
0

Given "CCCCn1c(=O)on(C(=O)N(c2ccc(F)cc2F)C(C)C)c1=O" , state its recorded Plant response rating, Velvetleaf.
0

Query (compound): "CC(C)N(C(=O)n1oc(=O)n(CCN(C)C(=O)c2ccccc2)c1=O)c1ccc(F)cc1" ; field requested: Plant response rating, Velvetleaf
0

Form field: reported Plant response rating, Velvetleaf of "COCCn1c(=O)on(C(=O)N(c2ccccc2)C(C)C)c1=O"
4

Value lookup for Plant response rating, Velvetleaf; key = COC1CCC(Cn2c(=O)on(C(=O)N(c3ccc(Cl)cc3)C(C)C)c2=O)=NO1 (centres unmarked)
0
